Each entry below lists one item and its recorded fold change in CYP2B6 mRNA expression vs vehicle at 10 μM value.
# System: CYP2B6
# protocolNotes: CYP induction, CYP2B6 mRNA expression
# Assay type: in vitro ADME
# studyConditions: human; @ 10 μM; mean fold shift compared to vehicle; read-out: Fold shift in mRNA expr. (CYP 2B6)
parameterMeasured: fold change in CYP2B6 mRNA expression vs vehicle at 10 μM

                                   molecule  measvalue
0  CNc1cc2c(cn1)nc([C@@H](C)O)n2[C@H]1CC[C@H](CC#N)CC1        1.7
1  C[C@@H](O)c1nc2cnc3[nH]ccc3c2n1[C@H]1CC[C@H](C#N)CC1        1.4

* * *

# protocolNotes: Aqueous solubility of crystalline material
# Format: physicochemical
# studyConditions: aqueous medium, aqueous buffer, thermodynamic from solid, pH 2.0, crystalline material
parameterMeasured: solubility (mg/mL)

>>> df
                                   molecule  parametermeasured  inequalitysign  measvalue
0  CNc1cc2c(cn1)nc([C@@H](C)O)n2[C@H]1CC[C@H](CC#N)CC1         solubility               >        346
1  C[C@@H](O)c1nc2cnc3[nH]ccc3c2n1[C@H]1CC[C@H](C#N)CC1         solubility               =         90
2  C[C@@H](O)c1nc2cnc3[nH]ccc3c2n1[C@H]1CC[C@H](CC#N)CC1         solubility               =       2.47

* * *

# subjectOfTest: JAK3 (Homo sapiens (Human), UniProt P52333)
# Sequence (P52333 822-1111): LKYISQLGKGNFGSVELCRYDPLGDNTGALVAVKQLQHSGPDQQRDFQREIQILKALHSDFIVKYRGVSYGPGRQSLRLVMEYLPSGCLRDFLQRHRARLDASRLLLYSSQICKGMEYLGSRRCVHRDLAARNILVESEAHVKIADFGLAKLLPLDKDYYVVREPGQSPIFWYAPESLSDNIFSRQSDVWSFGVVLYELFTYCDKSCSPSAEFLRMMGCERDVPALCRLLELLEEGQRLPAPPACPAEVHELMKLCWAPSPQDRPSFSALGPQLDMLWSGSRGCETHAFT
# protocolNotes: JAK3 kinase assay (HTRF)
# Type: biochemical
# studyConditions: ATP at Km (2 μM)
# Protocol: Human baculovirus-expressed Janus kinase (JAK) 1, 2, 3 and tyrosin kinase (TYK) 2 were purchased from Carna Biosciences, Inc (#08-144, -045, -046, -147 resp.). All four purified enzymes contain only the catalytic domain. […] Inhibition of phosphorylation of a synthetic peptide was measured in an HTRF-based assay (CisBio #62TKOPEC). […] A ratio ((665/615)×10^4) was calculated for each well.
pEC50: −log10 of the molar value.
Note to self: values exactly at 6 are true. So pEC50 at or above 6 is true, below is false.

                                   compound  classification
0  CNc1cc2c(cn1)nc(C(C)O)n2[C@H]1CC[C@H](CC#N)CC1 (some centres unmarked) [Example 1]           false
1  CNc1cc2c(cn1)nc([C@@H](C)O)n2[C@H]1CC[C@H](CC#N)CC1 [Example 3]           false
2  CNc1cc2c(cn1)nc(C(C)O)n2[C@H]1CC[C@@H](CC#N)CC1 (some centres unmarked) [Example 6]           false
3  C[C@@H](O)c1nc2cnc3[nH]ccc3c2n1[C@H]1CC[C@H](CC#N)CC1 [Example 644 of WO2011086053]            true

* * *

Recorded pEC50 for the following compounds
# subjectOfTest: JAK3 (Homo sapiens (Human), UniProt P52333)
# protocolNotes: JAK3 kinase assay (HTRF)
# Type: biochemical
pEC50: −log10 of the molar value.
parameterMeasured: pEC50

>>> print(df.to_string())
                                   compound  measvalue
0  CNc1cc2c(cn1)nc([C@H](C)O)n2[C@H]1CC[C@H](CC#N)CC1 [Example 2]       5.01
1  C[C@@H](O)c1nc2cnc3[nH]ccc3c2n1[C@H]1CC[C@H](C#N)CC1 [Example 641 of WO2011086053]       6.13
2  [2H]C([2H])([2H])C([2H])(O)c1nc2cnc(NC)cc2n1[C@H]1CC[C@H](CC#N)CC1 (stereo partly shown) [Example 5]       5.49
3  [2H]C([2H])([2H])Nc1cc2c(cn1)nc([C@@H](C)O)n2[C@H]1CC[C@H](CC#N)CC1 [Example 4]       5.64

* * *

Items are presented alongside their recorded JAK2/JAK1 ratio.
# subjectOfTest: JAK1 (Homo sapiens (Human), UniProt P23458)
# Sequence (P23458 850-1154): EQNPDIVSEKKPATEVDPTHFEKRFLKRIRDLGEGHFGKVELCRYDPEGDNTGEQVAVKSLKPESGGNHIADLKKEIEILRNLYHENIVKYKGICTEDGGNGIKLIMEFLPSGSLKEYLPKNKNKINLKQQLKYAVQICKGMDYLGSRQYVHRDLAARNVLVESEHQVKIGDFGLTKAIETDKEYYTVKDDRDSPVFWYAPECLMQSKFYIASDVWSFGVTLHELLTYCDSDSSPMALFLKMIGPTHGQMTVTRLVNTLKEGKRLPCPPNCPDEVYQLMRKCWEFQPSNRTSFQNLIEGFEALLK
# protocolNotes: JAK1 kinase assay (HTRF)
# Type: biochemical
# studyConditions: ratio of the respective EC50
parameterMeasured: JAK2/JAK1 ratio

                                   molecule  measvalue
0  CNc1cc2c(cn1)nc([C@@H](C)O)n2[C@H]1CC[C@H](CC#N)CC1 [Example 3]         51
1  [2H]C([2H])([2H])C([2H])(O)c1nc2cnc(NC)cc2n1[C@H]1CC[C@H](CC#N)CC1 (stereo partly shown) [Example 5]         36
2  [2H]C([2H])([2H])Nc1cc2c(cn1)nc([C@@H](C)O)n2[C@H]1CC[C@H](CC#N)CC1 [Example 4]         44
3  CNc1cc2c(cn1)nc(C(C)O)n2[C@H]1CC[C@@H](CC#N)CC1 (stereo partly shown) [Example 6]        5.2

* * *

# Test system: CYP2B6
# protocolNotes: CYP induction, CYP2B6 mRNA expression
# Format: in vitro ADME
# studyConditions: human; @ 0.1 μM; mean fold shift compared to vehicle; read-out: Fold shift in mRNA expr. (CYP 2B6)
parameterMeasured: fold change in CYP2B6 mRNA expression vs vehicle at 0.1 μM

                                   molecule  subjectoftest  measvalue
0  CNc1cc2c(cn1)nc([C@@H](C)O)n2[C@H]1CC[C@H](CC#N)CC1         CYP2B6        1.1
1  C[C@@H](O)c1nc2cnc3[nH]ccc3c2n1[C@H]1CC[C@H](C#N)CC1         CYP2B6          1

* * *

Known EC50 of a selection of molecules
# subjectOfTest: TYK2 (Homo sapiens (Human))
# Sequence (P29597 871-1187): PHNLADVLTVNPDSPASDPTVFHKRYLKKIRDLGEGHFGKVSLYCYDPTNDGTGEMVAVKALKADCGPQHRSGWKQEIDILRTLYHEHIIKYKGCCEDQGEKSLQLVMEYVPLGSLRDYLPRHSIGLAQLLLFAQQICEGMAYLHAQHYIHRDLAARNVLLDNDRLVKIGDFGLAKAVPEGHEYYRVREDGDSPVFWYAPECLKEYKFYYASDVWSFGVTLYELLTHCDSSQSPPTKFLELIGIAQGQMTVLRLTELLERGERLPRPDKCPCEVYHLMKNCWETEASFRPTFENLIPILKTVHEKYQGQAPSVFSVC
# protocolNotes: TYK2 kinase assay (HTRF)
# Assay type: biochemical
# studyConditions: ATP at Km (13 μM)
parameterMeasured: EC50 (nM)

>>> df
                                   molecule  measvalue
0  CNc1cc2c(cn1)nc(C(C)O)n2[C@H]1CC[C@H](CC#N)CC1 (some centres unmarked) [Example 1]        111
1  CNc1cc2c(cn1)nc([C@@H](C)O)n2[C@H]1CC[C@@H](CC#N)CC1 [Example 7]        443
2  C[C@@H](O)c1nc2cnc3[nH]ccc3c2n1[C@H]1CC[C@H](CC#N)CC1 [Example 644 of WO2011086053]       3.32
3  CNc1cc2c(cn1)nc([C@@H](C)O)n2[C@H]1CC[C@H](CC#N)CC1 [Example 3]         32
4  CNc1cc2c(cn1)nc(C(C)O)n2[C@H]1CC[C@@H](CC#N)CC1 (some centres unmarked) [Example 6]       1110

* * *

Measured CYP1A2 mRNA fold change vs vehicle at 1 μM values are reported for all entries that follow.
# Tested on: CYP1A2
# protocolNotes: CYP induction, CYP1A2 mRNA expression
# Type: in vitro ADME
# studyConditions: human; @ 1.0 μM; mean fold shift compared to vehicle; read-out: Fold shift in mRNA expr. (CYP 1A2)
parameterMeasured: CYP1A2 mRNA fold change vs vehicle at 1 μM

In [3]: df
Out[3]:
                                   compound  measvalue
0  CNc1cc2c(cn1)nc([C@@H](C)O)n2[C@H]1CC[C@H](CC#N)CC1 [Example 3]        0.7
1  C[C@@H](O)c1nc2cnc3[nH]ccc3c2n1[C@H]1CC[C@H](C#N)CC1 [Example 641 of WO2011086053]        0.8

* * *

# subjectOfTest: UniProtKB P29597
# protocolNotes: TYK2 kinase assay (HTRF)
# Format: biochemical
pEC50: −log10 of the molar value.
parameterMeasured: pEC50

                                   molecule  parametermeasured  measvalue
0  C[C@@H](O)c1nc2cnc3[nH]ccc3c2n1[C@H]1CC[C@H](C#N)CC1 [Example 641 of WO2011086053]              pEC50       6.94
1  [2H]C([2H])([2H])C([2H])(O)c1nc2cnc(NC)cc2n1[C@H]1CC[C@H](CC#N)CC1 (stereo partly shown) [Example 5]              pEC50       6.99
2  CNc1cc2c(cn1)nc([C@H](C)O)n2[C@H]1CC[C@H](CC#N)CC1 [Example 2]              pEC50       6.33
3  [2H]C([2H])([2H])Nc1cc2c(cn1)nc([C@@H](C)O)n2[C@H]1CC[C@H](CC#N)CC1 [Example 4]              pEC50       7.37
